Attribute: Homo Fc fragment (%)
target: the molecule itself; assay: SEC peak area ratio; full-length heavy chain, light chain and Fc fragment coexpressed in Expi293F, Protein A purified
Enter your answer as a number in %; do not include the unit.

Recorded Homo Fc fragment (%), per entry:
Note down Homo Fc fragment (%) recorded for L234F/L235E/P331S (suppress FcγR binding) Fc fragment with Q347R/K360E/D399V/F405T/K409W, SEQ ID NO: 602 (other) DKTHTCPPCPAPEFEGGPSVFLFPPKPKDTLMISRTPEVTCVVVDVSHEDPEVKFNWYVDGVEVHNAKTKPREEQYNSTYRVVSVLTVLHQDWLNGKEYKCKVSNKALPASIEKTISKAKGQPREPRVYTLPPSREEMTENQVSLTCLVKGFYPSDIAVEWESNGQPENNYKTTPPVLVSDGSFTLYSWLTVDKSRWQQGNVFSCSVMHEALHNHYTQKSLSLSP 38.8

Note down Homo Fc fragment (%) recorded for L234F/L235E/P331S (suppress FcγR binding) Fc fragment with T394W/F405A, SEQ ID NO: 600 (other) DKTHTCPPCPAPEFEGGPSVFLFPPKPKDTLMISRTPEVTCVVVDVSHEDPEVKFNWYVDGVEVHNAKTKPREEQYNSTYRVVSVLTVLHQDWLNGKEYKCKVSNKALPASIEKTISKAKGQPREPQVYTLPPSREEMTKNQVSLTCLVKGFYPSDIAVEWESNGQPENNYKTWPPVLDSDGSFALYSKLTVDKSRWQQGNVFSCSVMHEALHNHYTQKSLSLSP 37.9

Others:
Note down Homo Fc fragment (%) recorded for E345R/E430G/S440Y (promote hexamer formation) Fc fragment, SEQ ID NO: 165 (other, No homodimer-promoting modification ('-'); also called Sample No. 360 Fc fragment) DKTHTCPPCPAPELLGGPSVFLFPPKPKDTLMISRTPEVTCVVVDVSHEDPEVKFNWYVDGVEVHNAKTKPREEQYNSTYRVVSVLTVLHQDWLNGKEYKCKVSNKALPAPIEKTISKAKGQPRRPQVYTLPPSREEMTKNQVSLTCLVKGFYPSDIAVEWESNGQPENNYKTTPPVLDSDGSFFLYSKLTVDKSRWQQGNVFSCSVMHGALHNHYTQKYLSLSP 8.8
